Assay: Proliferation of exponentially growing Huh-5-2 cells (MTS method)
Details: human, Huh-5-2 cells (Huh-5 cell line with persistent HCV replicon)
readout: CC50 at 72 h (µg/mL)
Answer in µg/mL, number only, no unit symbol.

*Q* Please look at this compound and report its CC50 at 72 h: COCCN1C(=O)c2ccccc2C(C(=O)Nc2nc3ccc(OC)cc3s2)C1c1ccc(F)cc1 (stereo not shown)
*A* 14.9

* * *

Assay: Proliferation of exponentially growing Huh-5-2 cells (MTS method)
Details: human, CC50, concentration required to inhibit the proliferation of exponentially growing Huh-5-2 cells by 50%; Table 2
Method: Cells were seeded at a density of 7000 cells per well in 96 well View Plate™ (Packard) in medium containing the same components as described above, except for G418. Cells were allowed to adhere and proliferate for 24 hr. […] Luciferase activity is measured by adding 50 μl of 1×Glo-lysis buffer (Promega) for 15 minutes followed by 50 ul of the Steady-Glo Luciferase assay reagent (Promega). […] Instead the density of the culture is measured by means of the MTS method (Promega).
Lab note: anything with CC50 at 72 h below 70 µg/mL is marked 1; values at 70 µg/mL or higher are marked -1.

*Q* Confirm or reject: CC50 at 72 h of COc1cccc(NC(=O)C2c3ccccc3C(=O)N(CCOC(C)C)C2c2cccs2)c1 (stereo not drawn) lies strictly below 70 µg/mL
*A* 1

*Q* CC50 at 72 h strictly < 70 µg/mL for this molecule? COc1cccc(NC(=O)C2c3ccccc3C(=O)N(CC3CCCO3)C2c2cccs2)c1 (stereo not drawn)
*A* 1

*Q* Does the reported CC50 at 72 h of the following molecule sit strictly below 70 µg/mL? COCCN1C(=O)c2ccccc2C(C(=O)Nc2ccc(Cn3cncn3)cc2)C1c1cccs1 (stereo not drawn)
*A* -1

*Q* API: query returns whether the molecule falls strictly under 70 µg/mL in CC50 at 72 h. Query: COCCN1C(=O)c2ccccc2C(C(=O)Nc2cc(C(C)(C)C)[nH]n2)C1c1cccs1 (stereo not drawn)
*A* 1

*Q* Hello, I'm reviewing records and need to know if CC50 at 72 h of CCc1nnc(NC(=O)C2c3ccccc3C(=O)N(CCOC)C2c2cccs2)o1 (stereo not drawn) is below 70 µg/mL. Could you check?
*A* 1

*Q* Consider COCCN1C(=O)c2ccccc2C(C(=O)Nc2ccn(C)n2)C1c1cccs1 (stereo not drawn) . Does its CC50 at 72 h lie strictly below 70 µg/mL?
*A* -1

*Q* Below 70 µg/mL on CC50 at 72 h? Entry COCCN1C(=O)c2ccccc2C(C(=O)Nc2cccc(NC(C)=O)c2)C1c1cccs1 (stereo not drawn)
*A* -1

*Q* Input COCCN1C(=O)c2ccccc2C(C(=O)Nc2cccc(OC)c2)C1c1cc(C)nn1C (stereo not drawn) ; condition: CC50 at 72 h strictly below 70 µg/mL. Does it hold?
*A* -1

*Q* Does COCCN1C(=O)c2ccccc2C(C(=O)Nc2ccc(C(F)(F)F)cc2)C1c1cccs1 (stereo not drawn) have CC50 at 72 h strictly under 70 µg/mL?
*A* 1

*Q* Find out if reported CC50 at 72 h for COCCN1C(=O)c2ccccc2C(C(=O)Nc2ccc(CN3CCCCC3)cc2)C1c1cccs1 (stereo not drawn) is less than 70 µg/mL
*A* 1

*Q* Take the molecule COCCN1C(=O)c2ccccc2C(C(=O)Nc2cc(C(=O)OC)n(C)c2)C1c1cccs1 (stereo not drawn) and say whether its CC50 at 72 h is less than 70 µg/mL.
*A* 1

*Q* Take the molecule COCCN1C(=O)c2ccccc2C(C(=O)Nc2cccc(OC)c2)C1c1sccc1Cl (stereo not drawn) and say whether its CC50 at 72 h is less than 70 µg/mL.
*A* 1

*Q* Just wondering, is CC50 at 72 h of COc1cccc(NC(=O)C2c3ccccc3C(=O)N(CC(F)(F)F)C2c2cccs2)c1 (stereo not drawn) below 70 µg/mL?
*A* 1
